# experimental.system: F508delCFTR (Homo sapiens, UniProt P13569, DEL508-508)
# Construct: expressed in transfected cells; host or cells: CFBE41o- human lung-derived epithelial cells (CFBE4lo-F508delCFTR-HRP), doxycycline-inducible
# Sequence (P13569 with tags, fused parts or gaps DEL508-508): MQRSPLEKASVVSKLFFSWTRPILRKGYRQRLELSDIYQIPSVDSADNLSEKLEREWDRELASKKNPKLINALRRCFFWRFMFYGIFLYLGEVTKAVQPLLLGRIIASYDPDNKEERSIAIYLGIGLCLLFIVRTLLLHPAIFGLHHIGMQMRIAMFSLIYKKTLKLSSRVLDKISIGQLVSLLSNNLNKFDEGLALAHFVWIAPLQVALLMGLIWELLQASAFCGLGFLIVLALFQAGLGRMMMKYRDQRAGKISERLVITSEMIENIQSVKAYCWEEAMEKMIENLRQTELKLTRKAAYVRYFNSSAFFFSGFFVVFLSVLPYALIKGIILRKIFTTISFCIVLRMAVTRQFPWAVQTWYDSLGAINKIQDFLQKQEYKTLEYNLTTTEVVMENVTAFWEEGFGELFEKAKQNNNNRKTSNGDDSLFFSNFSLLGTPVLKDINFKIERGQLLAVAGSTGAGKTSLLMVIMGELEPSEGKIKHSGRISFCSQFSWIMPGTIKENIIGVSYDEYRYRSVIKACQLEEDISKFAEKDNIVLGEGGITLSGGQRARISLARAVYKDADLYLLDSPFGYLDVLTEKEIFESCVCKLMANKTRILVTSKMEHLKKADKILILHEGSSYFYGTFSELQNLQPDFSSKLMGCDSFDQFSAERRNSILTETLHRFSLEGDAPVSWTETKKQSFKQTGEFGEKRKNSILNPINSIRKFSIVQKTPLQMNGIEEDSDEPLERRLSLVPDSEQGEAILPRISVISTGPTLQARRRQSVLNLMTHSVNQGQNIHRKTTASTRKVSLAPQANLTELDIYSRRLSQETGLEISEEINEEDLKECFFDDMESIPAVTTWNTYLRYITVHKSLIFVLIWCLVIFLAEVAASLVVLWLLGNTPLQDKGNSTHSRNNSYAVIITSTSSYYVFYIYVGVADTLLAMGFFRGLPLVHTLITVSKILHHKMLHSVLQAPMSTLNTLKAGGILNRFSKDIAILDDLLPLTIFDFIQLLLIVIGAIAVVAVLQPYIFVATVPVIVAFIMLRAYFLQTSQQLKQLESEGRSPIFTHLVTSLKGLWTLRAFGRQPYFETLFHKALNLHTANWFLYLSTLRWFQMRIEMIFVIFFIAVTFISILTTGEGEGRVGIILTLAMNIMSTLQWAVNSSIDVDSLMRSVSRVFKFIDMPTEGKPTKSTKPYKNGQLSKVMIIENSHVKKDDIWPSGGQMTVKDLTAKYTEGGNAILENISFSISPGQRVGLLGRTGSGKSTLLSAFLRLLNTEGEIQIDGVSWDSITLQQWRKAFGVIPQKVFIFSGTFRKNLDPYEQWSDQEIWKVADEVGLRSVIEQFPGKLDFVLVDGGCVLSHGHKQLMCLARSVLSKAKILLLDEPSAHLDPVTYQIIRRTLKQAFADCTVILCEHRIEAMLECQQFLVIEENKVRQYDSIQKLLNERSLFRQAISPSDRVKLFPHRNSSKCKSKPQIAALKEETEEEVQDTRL
# assay.remarks: Cell Surface Expression-Horse Radish Peroxidase (CSE-HRP) Assay;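 on Maximum % activity (without co-corrector): percent of the 2 µM on-plate positive control corrector response above DMSO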
# Assay type: cell-based
# experimental.context: CSE-HRP; without co-corrector; maximum at any tested concentration, normalized to on-plate positive control; read-out: Maximum % activity (without co-corrector)
reported.property: Emax

Sample answers from the record:
| molecule | experimental.system | Emax |
| --- | --- | --- |
| COc1cc(C(F)(F)F)ccc1CN[C@H]1[C@H](C(C)(C)C)[C@@H](C(=O)O)N(C(=O)C2CCCCC2)[C@H]1c1cccnc1C | F508delCFTR (Homo sapiens, UniProt P13569, DEL508-508) | 100 to 200% |
| COc1ccc(C(C)(C)C)cc1CN[C@H]1[C@H](C(C)(C)C)[C@@H](C(=O)O)N(C(=O)[C@@H](C)OC)[C@H]1c1ccccc1 | F508delCFTR (Homo sapiens, UniProt P13569, DEL508-508) | > 200% |
| COc1cc(Cl)ccc1CN[C@H]1[C@H](C(C)(C)C)[C@@H](C(=O)O)N(C(=O)[C@H](OC)c2ccccc2)[C@H]1c1cccnc1N(C)C (racemic) | F508delCFTR (Homo sapiens, UniProt P13569, DEL508-508) | 100 to 200% |
| Cc1ccc(CN[C@H]2[C@H](C(C)(C)C)[C@@H](C(=O)O)N(C(=O)C3CCCCC3)[C@H]2c2ccccc2)c(C)c1 | F508delCFTR (Homo sapiens, UniProt P13569, DEL508-508) | 100 to 200% |
| COc1nc(C(F)(F)F)ccc1CN[C@@H]1[C@@H](C(C)(C)C)[C@H](C(=O)O)N(C(=O)C2CCCCC2)[C@@H]1c1ccccc1 (racemic) | F508delCFTR (Homo sapiens, UniProt P13569, DEL508-508) | 100 to 200% |

Now for the molecule whose Emax we want.
Inquiry: Emax lookup needed for `COc1ccc(C(C)(C)C)cc1CN[C@H]1[C@H](C(C)(C)C)[C@@H](C(=O)O)N(C(=O)c2ccc3c(c2)OCCCO3)[C@H]1c1ccccc1` , thanks.
Reply text: 100 to 200%

====

# experimental.system: F508delCFTR (Homo sapiens, UniProt P13569, DEL508-508)
# Construct: expressed in transfected cells; host or cells: CFBE41o- human lung-derived epithelial cells (CFBE4lo-F508delCFTR-HRP), doxycycline-inducible
# assay.remarks: Cell Surface Expression-Horse Radish Peroxidase (CSE-HRP) Assay;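 on Maximum % activity (without co-corrector): percent of the 2 µM on-plate positive control corrector response above DMSO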
# Type: cell-based
# experimental.context: without co-corrector; maximum at any tested concentration, normalized to on-plate positive control; read-out: Maximum % activity (without co-corrector)
Catalogue of compounds with associated Emax

Sample answers from the record:
| compound | Emax |
| --- | --- |
| CO[C@H](C(=O)N1[C@H](c2ccccc2)[C@H](Nc2cc(C(F)(F)F)cc(C)n2)[C@@H](C(C)(C)C)[C@@H]1C(=O)O)c1ccccc1 (relative stereo) [Example I-33] | < 100% |
| COc1ccc(C(C)(C)C)cc1CN[C@H]1[C@H](C(C)(C)C)[C@@H](C(=O)O)N(C(=O)CN2Cc3ccccc3C2)[C@H]1c1ccccc1 [Example I-91] | > 200% |

Inquiry: Emax lookup needed for COc1ccc(C(C)(C)C)cc1CN[C@H]1[C@H](C(C)(C)C)[C@@H](C(=O)O)N(C(=O)[C@@H]2CCCN(C(=O)OC(C)C)C2)[C@H]1c1ccccc1 [Example I-246] , thanks.
Reply text: > 200%

Inquiry: Emax lookup needed for COc1ncc(C2CCC2)cc1CN[C@H]1[C@H](C(C)(C)C)[C@@H](C(=O)O)N(C(=O)[C@@H]2CCCO2)[C@H]1c1ccccc1C(C)C [Example 89] , thanks.
Reply text: > 200%

Inquiry: Emax lookup needed for COc1ccc(C(C)(C)C)cc1CN[C@H]1[C@H](C(C)(C)C)[C@@H](C(=O)O)N(C(=O)[C@H](C)c2ccccc2)[C@H]1c1cccnc1N(C)C [Example I-233] , thanks.
Reply text: 100 to 200%

Inquiry: Emax lookup needed for COc1ncc(C2CCC2)cc1CN[C@H]1[C@H](C(C)(C)C)[C@@H](C(=O)O)N(C(=O)[C@@H]2CCCO2)[C@H]1c1ccccc1Cl [Example 103] , thanks.
Reply text: 100 to 200%

Inquiry: Emax lookup needed for COc1cc2c(cc1CN[C@H]1[C@H](C(C)(C)C)[C@@H](C(=O)O)N(C(=O)C3CCCCC3)[C@H]1c1ccccc1)CCC2 [Example I-49] , thanks.
Reply text: > 200%

Inquiry: Emax lookup needed for COc1ccc(C(F)(F)F)cc1CN[C@H]1[C@H](C(C)(C)C)[C@@H](C(=O)O)N(C(=O)C2CCCCC2)[C@H]1c1ccccc1 [Example 9] , thanks.
Reply text: 100 to 200%

Inquiry: Emax lookup needed for COc1ncc(C(C)(C)C)cc1CN[C@H]1[C@H](C(C)(C)C)[C@@H](C(=O)O)N(C(=O)C2CCCCC2)[C@H]1c1ccc(F)cc1 [Example I-130] , thanks.
Reply text: > 200%

Inquiry: Emax lookup needed for COc1ccc(C(C)(C)C)cc1CN[C@H]1[C@H](C(C)(C)C)[C@@H](C(=O)O)N(C(=O)CC2(O)CCCC2)[C@H]1c1ccccc1 [Example I-99] , thanks.
Reply text: > 200%

====

# experimental.system: F508delCFTR (Homo sapiens, UniProt P13569, DEL508-508)
# Construct: expressed in transfected cells; host or cells: CFBE41o- human lung-derived epithelial cells (CFBE4lo-F508delCFTR-HRP), doxycycline-inducible
# assay.remarks: Cell Surface Expression-Horse Radish Peroxidase (CSE-HRP) Assay;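 on Maximum % activity (without co-corrector): percent of the 2 µM on-plate positive control corrector response above DMSO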
# Assay type: cell-based
# experimental.context: CSE-HRP; without co-corrector; maximum at any tested concentration, normalized to on-plate positive control; read-out: Maximum % activity (without co-corrector)
# Description: Cell Surface Expression-Horse Radish Peroxidase (CSE-HRP) Assay The development was achieved by expressing the F508delCFTR mutation along with a horseradish peroxidase (HRP) in the fourth exofacial loop, and then measuring the HRP activity using luminescence readout from these cells, CFBE4lo-F508delCFTR-HRP, that were incubated overnight with the test corrector compounds, either without or with the co-corrector. […] The raw counts from the experiment were analyzed using Accelrys® Assay Explorer v3.3. […]
reported.property: Emax

Sample answers from the record:
| molecule | Emax |
| --- | --- |
| COc1ccc(C(C)(C)C)cc1CN[C@H]1[C@H](C(C)(C)C)[C@@H](C(=O)O)N(C(=O)C(C)Oc2ccc(F)cc2)[C@H]1c1ccccc1 (stereo partly drawn) | > 200% |
| COc1ccc(C(C)(C)C)cc1CN[C@H]1[C@H](C(C)(C)C)[C@@H](C(=O)O)N(C(=O)OCC(C)C)[C@H]1c1ccccc1 | > 200% |

Now for the molecule whose Emax we want.
Inquiry: Emax lookup needed for `CC(C)(C)[C@H]1[C@H](NCc2cc(F)cc(F)c2)[C@H](c2ccccc2)N(C(=O)C2CCCCC2)[C@@H]1C(=O)O` , thanks.
Reply text: < 100%

====

# experimental.system: F508delCFTR (Homo sapiens, UniProt P13569, DEL508-508)
# Construct: expressed in transfected cells; host or cells: CFBE41o- human lung-derived epithelial cells (CFBE4lo-F508delCFTR-HRP), doxycycline-inducible
# assay.remarks: Cell Surface Expression-Horse Radish Peroxidase (CSE-HRP) Assay;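 on Maximum % activity (with co-corrector): co-corrector and positive control are both the same reference corrector at 2 µM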
# Format: cell-based
# experimental.context: with co-corrector (2 μM); maximum at any tested concentration, normalized to on-plate positive control
reported.property: Maximum % activity (with co-corrector)

| molecule | readout.value |
| --- | --- |
| COc1ccc(C(C)(C)C)cc1CN[C@H]1[C@H](C(C)(C)C)[C@@H](C(=O)O)N(C(=O)C2CCc3ccccc3C2)[C@H]1c1ccccc1 (stereo partly drawn) [III-191] | +++ (≥350) |
| COc1nc(C(C)(C)C)ccc1CN[C@H]1[C@H](C(C)(C)C)[C@@H](C(=O)O)N(C(=O)OC(C)C)[C@H]1c1cccnc1N(C)C [III-219] | +++ (≥350) |
| COc1ncc(C2CCC2)cc1CN[C@H]1[C@H](C(C)(C)C)[C@@H](C(=O)O)N(C(=O)C2CCCCC2C(F)(F)F)[C@H]1c1ccccc1 (stereo partly drawn) [III-214] | +++ (≥350) |

====

# experimental.system: F508delCFTR (Homo sapiens, UniProt P13569, DEL508-508)
# Construct: expressed in transfected cells; host or cells: CFBE41o- human lung-derived epithelial cells (CFBE4lo-F508delCFTR-HRP), doxycycline-inducible
# assay.remarks: Cell Surface Expression-Horse Radish Peroxidase (CSE-HRP) Assay;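 on Maximum % activity (without co-corrector): percent of the 2 µM on-plate positive control corrector response above DMSO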
# Format: cell-based
# experimental.context: CSE-HRP; without co-corrector; maximum at any tested concentration, normalized to on-plate positive control; read-out: Maximum % activity (without co-corrector)
Catalogue of molecules with associated Emax

Inquiry: Emax lookup needed for COc1ncc(C2CCCCC2)cc1CN[C@H]1[C@H](C(C)(C)OC)[C@@H](C(=O)O)N(C(=O)C2CCCCC2)[C@H]1c1ccccc1 [II-252] , thanks.
Reply text: > 200%

Inquiry: Emax lookup needed for COc1ccc(C(C)(C)C)cc1CN[C@H]1[C@H](C(C)(C)C)[C@@H](C(=O)O)N(C(=O)C(OC)C(C)(C)C)[C@H]1c1ccccc1 (relative stereo) [II-297] , thanks.
Reply text: < 100%

Inquiry: Emax lookup needed for COc1ccc(C(C)(C)C)cc1CN[C@H]1[C@H](C(C)(C)C)[C@@H](C(=O)O)N(C(=O)Cc2ccccc2)[C@H]1c1ccccc1 [II-180] , thanks.
Reply text: > 200%

Inquiry: Emax lookup needed for COc1ccc(-c2ccccc2)nc1CN[C@H]1[C@H](C(C)(C)C)[C@@H](C(=O)O)N(C(=O)C2CCCCC2)[C@H]1c1ccccc1 [II-296] , thanks.
Reply text: 100 to 200%

Inquiry: Emax lookup needed for COc1ccc(C(C)(C)C)cc1CN[C@H]1[C@H](C(C)(C)C)[C@@H](C(=O)O)N(C(=O)CC2CC(=O)c3ccccc32)[C@H]1c1ccccc1 (stereo partly drawn) [II-217] , thanks.
Reply text: > 200%

Inquiry: Emax lookup needed for COc1ccc(C(C)(C)C)cc1CN[C@H]1[C@H](C(C)(C)C)[C@@H](C(=O)O)N(C(=O)[C@@H]2CCCO2)[C@H]1c1cccnc1N(C)C [Example I-284] , thanks.
Reply text: > 200%
